TARGET_OR_TEST_SYSTEM: T1, EsCas13d, nuclease-dead (Eubacterium siraeum, UniProt B0MS50, R295A;H300A;R849A;H854A)
T1 sequence: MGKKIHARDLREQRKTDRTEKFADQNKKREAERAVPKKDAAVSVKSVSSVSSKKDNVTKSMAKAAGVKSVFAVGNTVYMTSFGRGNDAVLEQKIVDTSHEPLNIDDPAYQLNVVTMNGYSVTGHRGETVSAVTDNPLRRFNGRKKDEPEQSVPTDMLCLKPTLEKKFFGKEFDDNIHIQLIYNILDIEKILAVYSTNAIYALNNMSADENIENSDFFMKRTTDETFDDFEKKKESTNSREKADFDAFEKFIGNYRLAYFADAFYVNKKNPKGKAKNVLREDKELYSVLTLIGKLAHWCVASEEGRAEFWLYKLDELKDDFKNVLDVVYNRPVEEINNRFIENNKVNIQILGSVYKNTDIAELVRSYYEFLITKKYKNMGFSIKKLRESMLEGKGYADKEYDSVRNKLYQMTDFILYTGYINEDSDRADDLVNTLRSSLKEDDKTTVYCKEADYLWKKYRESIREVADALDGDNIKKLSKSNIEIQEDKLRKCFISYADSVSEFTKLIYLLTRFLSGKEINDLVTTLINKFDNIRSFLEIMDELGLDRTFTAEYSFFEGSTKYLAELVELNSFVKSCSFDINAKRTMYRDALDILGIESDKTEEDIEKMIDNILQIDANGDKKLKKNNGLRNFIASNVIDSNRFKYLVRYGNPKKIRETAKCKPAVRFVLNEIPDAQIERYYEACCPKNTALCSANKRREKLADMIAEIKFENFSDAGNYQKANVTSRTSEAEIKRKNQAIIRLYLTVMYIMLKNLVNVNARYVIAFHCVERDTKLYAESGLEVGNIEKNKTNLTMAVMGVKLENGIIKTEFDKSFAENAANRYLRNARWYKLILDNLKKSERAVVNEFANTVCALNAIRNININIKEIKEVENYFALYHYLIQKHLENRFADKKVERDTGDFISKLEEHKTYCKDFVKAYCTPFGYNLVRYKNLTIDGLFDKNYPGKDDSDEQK
PROTOCOL_NOTES: crRNA (strand 1, pre-loaded); Mg2+; 40 mM Tris-HCl pH 7.5, 150 mM NaCl, 6 mM MgCl2, 1 mM DTT, 0.1% Tween-20, 0.2 mg/ml BSA; 25 C; 10 min per concentration, then washed
CONDITION_PARAMETERS: tags: His6-TwinStrep-SUMO cleaved; N-terminal SNAP kept (SNAP-Surface 488); label: 3' end held by stalled T7 RNA polymerase
PARAMETER: Kd (nM)

* target 2 MT 5'PFS AUU 3'PFS ACC (mixed) RNA 1: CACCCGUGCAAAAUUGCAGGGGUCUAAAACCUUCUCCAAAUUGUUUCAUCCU RNA 2: GGGAAUGGAUCCACAUCUACGAAUUCAUUAGGAUGAAACAAUUUGGAGAAGACCAGAUCGGAAGAGCACACGU | 15.2
* target 1 insU 3' of 20,insG 3' of 6 (mixed) RNA 1: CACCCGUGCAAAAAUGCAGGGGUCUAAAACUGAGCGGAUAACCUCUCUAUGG RNA 2: GGGAAUGGAUCCACAUCUACGAAUUCGUACCAUUAGAGAGGUUAUCCGGCUCACCGAGAUCGGAAGAGCACACGU | 16.3
* target 2 MT 5'PFS GCC 3'PFS UAG (mixed) RNA 1: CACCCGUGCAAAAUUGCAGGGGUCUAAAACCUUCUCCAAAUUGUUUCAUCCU RNA 2: GGGAAUGGAUCCACAUCUACGAAUUCGCCAGGAUGAAACAAUUUGGAGAAGUAGAGAUCGGAAGAGCACACGU | 12
